Assay: Plasma stability at 37° C., mouse plasma
Format: in vitro ADME
Conditions: Table 7, same conditions as Example 3, read-out: Plasma half life Mouse
Experimental: Plasma Stability in Mouse, Rat and Human Plasma at 37° C. Plasma: mouse (C57 Black 6 Male), rat (Sprague Dawley) and human containing heparin as an anti-coagulant. Plasma samples in duplicate were incubated with peptide at 3 μM in a 600 μl volume at 37° C. with shaking. 50 μl aliquots were withdrawn after 2, 5, 30, 60 and 120 mins and quenched into 150 μl of ice-cold methanol containing the internal standard (tolbutamide). […] Thalf was calculated in all matrices for each peptide.
Hi there, I'd appreciate the recorded half-life for every entry that follows.

Solved entries:
INSERT INTO assay_data (chemical_string, endpoint_value) VALUES
  ('CC(=O)N[C@H](Cc1c[nH]cn1)C(=O)NCC(=O)N[C@H](CC(C)C)C(=O)N[C@H](CC(N)=O)C(=O)N[C@@H](C(=O)N[C@H](CC(N)=O)C(=O)N[C@@H](C(=O)N[C@H](CC(C)C)C(=O)N[C@H](CO)C(=O)N[C@H](Cc1ccc(O)cc1)C(=O)NCC(=O)N[C@H](CC(=O)O)C(N)=O)[C@H](C)O)C(C)C', '> 360 min'),
  ('CC(C)C[C@H](NC(=O)CNC(=O)[C@@H](N)Cc1c[nH]cn1)C(=O)N[C@@H](CC(N)=O)C(=O)N[C@H](C(=O)N[C@@H](CC(N)=O)C(=O)N[C@H](C(=O)N[C@@H](CC(C)C)C(=O)N[C@@H](CO)C(=O)N[C@@H](Cc1ccc(O)cc1)C(=O)NCC(=O)N[C@H](CC(=O)O)C(N)=O)[C@@H](C)O)C(C)C', '39 min');

Indicate its recorded half-life; the compound in question is "CC(C)C[C@H](NC(=O)CNC(=O)[C@H](N)Cc1c[nH]cn1)C(=O)N[C@@H](CC(N)=O)C(=O)N[C@H](C(=O)N[C@@H](CC(N)=O)C(=O)N[C@H](C(=O)N[C@@H](CC(C)C)C(=O)N[C@@H](CO)C(=O)N[C@@H](Cc1ccc(O)cc1)C(=O)NCC(=O)N[C@@H](CC(=O)O)C(N)=O)[C@@H](C)O)C(C)C"
35 min
